test system: HepG2; assay: Cytotoxicity against human HepG2 cells up to 20 uM after 96 hrs by MTT assay; assay type: functional, cell-based
The source made the active and inactive calls. No cut-off for these calls is given here.
Outcomes: 1 (yes) for active, 0 (no) for inactive

# Chemical Smiles, Cat
data = [
    ("COc1cc(/C=C/c2ccc(O)cc2)cc(OC)c1OC", "0 (no)"),
    ("COc1ccc(/C=C/c2cc(OC)c(OC)c(OC)c2)cc1O", "1 (yes)"),
    ("COc1ccc(/C=C/c2cc(O)c(OC)c(OC)c2)cc1", "0 (no)"),
    ("COc1ccc(/C=C/c2cc(OC)c(O)c(OC)c2)cc1", "0 (no)"),
]

###

tested on: MCF7; assay: Cytotoxicity against human MCF7 cells up to 20 uM after 96 hrs by MTT assay; format: functional, cell-based
Activity calls are given as the source filed them. The calls are words filed in the database; no cut-off is given here.
Outcomes: active, inactive

# Chemical Smiles, Cat
data = [
    ("COc1cc(/C=C/c2ccc(O)cc2)cc(OC)c1OC", "inactive"),
    ("COc1ccc(/C=C/c2cc(OC)c(O)c(OC)c2)cc1", "inactive"),
    ("COc1ccc(/C=C/c2cc(OC)c(OC)c(OC)c2)cc1O", "active"),
    ("COc1ccc(/C=C/c2cc(O)c(OC)c(OC)c2)cc1", "inactive"),
]
